- TARGET_OF_ASSAY: COPS5 (UniProt Q92905)
- Sequence (Q92905 whole entry, looked up, the tested form may be a part): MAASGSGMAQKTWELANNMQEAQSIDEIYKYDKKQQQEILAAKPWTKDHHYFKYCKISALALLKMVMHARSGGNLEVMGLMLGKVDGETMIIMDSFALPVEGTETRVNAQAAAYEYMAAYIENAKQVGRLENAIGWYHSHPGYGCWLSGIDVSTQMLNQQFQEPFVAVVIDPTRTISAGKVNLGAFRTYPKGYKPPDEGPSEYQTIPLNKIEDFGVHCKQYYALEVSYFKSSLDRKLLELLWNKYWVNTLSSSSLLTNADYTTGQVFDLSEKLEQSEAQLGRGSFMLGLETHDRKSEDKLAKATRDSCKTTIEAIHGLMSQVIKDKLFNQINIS
- EXPERIMENT_SUMMARY: log2 ratio of Biotin-Ahx-Ub-VS probe labelling (fragment/DMSO); higher = less target engagement (more negative = stronger competition), active = hit call of the paper (q ≤ 0.05, log2 ratio ≤ -1)
- MEASUREMENT_PARAMETERS: compound concentration: 200 uM; treatment time: 3 h
PARAMETER: log2 ratio of Biotin-Ahx-Ub-VS probe labelling
Answers are plain numbers.

- O=C(CCl)N1CCN2C(=O)CCC2C1 (stereo unspecified): 0.141
- O=C(CCl)NCc1ccc2c(c1)OCO2: 0.119
- Cn1cc(CN(Cc2ccc(Cl)cc2)C(=O)CCl)cn1: -0.179
- Cc1nc(CN2CCCN(C(=O)CCl)CC2)no1.Cl: -0.0569
- CN(C(=O)CCl)c1nc2ccccc2s1: -0.0311

Consider the following items and state reported log2 ratio of Biotin-Ahx-Ub-VS probe labelling for each.
1. O=C(CCl)N1CCOC(CCc2ccccc2)C1 (stereo unspecified)
2. C[C@H]1CN(C(=O)CCl)CCN1C(=O)c1cnn(C)c1.Cl
3. O=C(CCl)N1CCN(C(=O)Nc2ccccc2)CC1
4. O=C(CCl)NC1CCC2(CC1)OCCO2
5. Cl.O=C(CCl)N1CCN(Cc2ccccc2)CC1
6. Cc1nnc(C(NC(=O)CCl)c2ccccc2)n1C (stereo unspecified)

-0.026
-0.0598
-0.0124
0.176
-0.0604
0.37

Consider the following items and state reported log2 ratio of Biotin-Ahx-Ub-VS probe labelling for each.
1. Cc1ccc2nnc(CNC(=O)CCl)n2c1
2. O=C(CCl)N1CCc2nc[nH]c2C1c1ccc(Cl)cc1 (stereo unspecified)
3. Cc1ccccc1CN(C)C(=O)CCl
4. CCN(Cc1ccc(C#N)cc1F)C(=O)CCl
5. Cl.O=C(CCl)NCc1cc2c(nc1O)CCCC2
6. CNC(=O)C1(NC(=O)CCl)CCCCC1
7. CN(Cc1nc2ccccc2[nH]1)C(=O)CCl.Cl
8. O=C(CCl)N(C1CCCC1)C1CCS(=O)(=O)C1 (stereo unspecified)

[-0.118, -0.139, 0.0682, -0.0333, -0.023, 0.00317, -0.0146, -0.0682]

###

- TARGET_OF_ASSAY: USP10 (UniProt Q14694)
- Sequence (Q14694 whole entry, the tested form may be a part): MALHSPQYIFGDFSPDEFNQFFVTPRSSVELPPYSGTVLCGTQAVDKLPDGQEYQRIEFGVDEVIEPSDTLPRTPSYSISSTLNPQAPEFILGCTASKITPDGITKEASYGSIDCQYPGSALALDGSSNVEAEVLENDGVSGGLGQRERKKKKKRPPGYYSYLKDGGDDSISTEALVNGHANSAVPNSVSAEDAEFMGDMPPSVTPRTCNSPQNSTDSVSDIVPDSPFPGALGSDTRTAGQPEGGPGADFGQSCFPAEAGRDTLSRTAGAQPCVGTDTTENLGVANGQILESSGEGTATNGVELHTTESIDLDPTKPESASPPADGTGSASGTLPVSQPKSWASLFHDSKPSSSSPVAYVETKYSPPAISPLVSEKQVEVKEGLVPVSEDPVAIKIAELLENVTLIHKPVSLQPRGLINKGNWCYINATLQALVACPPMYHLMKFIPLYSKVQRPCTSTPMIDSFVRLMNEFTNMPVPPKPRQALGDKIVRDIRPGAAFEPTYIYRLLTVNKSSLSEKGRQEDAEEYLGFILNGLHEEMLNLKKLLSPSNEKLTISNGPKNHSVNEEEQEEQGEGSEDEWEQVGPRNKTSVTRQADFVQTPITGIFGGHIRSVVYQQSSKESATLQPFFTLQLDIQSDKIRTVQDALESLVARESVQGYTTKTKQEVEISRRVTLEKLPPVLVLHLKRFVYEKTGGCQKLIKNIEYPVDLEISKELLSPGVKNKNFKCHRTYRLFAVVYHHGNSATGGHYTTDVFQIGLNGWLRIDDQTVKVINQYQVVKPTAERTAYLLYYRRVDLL
- EXPERIMENT_SUMMARY: log2 ratio of Biotin-Ahx-Ub-VS probe labelling (fragment/DMSO); higher = less target engagement (more negative = stronger competition), active = hit call of the paper (q ≤ 0.05, log2 ratio ≤ -1)
- MEASUREMENT_PARAMETERS: compound concentration: 200 uM; treatment time: 3 h
Exercise: for every item that follows, state its recorded log2 ratio of Biotin-Ahx-Ub-VS probe labelling.
Give bare numbers.

* O=C(CCl)NCC1(c2ccccc2)CC1 | 0.00549
* CN(CCC(O)c1ccc(Br)cc1)C(=O)CCl (stereo not given) | -0.142

Consider the following items and state reported log2 ratio of Biotin-Ahx-Ub-VS probe labelling for each.
1. O=C(CCl)N1CCN2C(=O)CCC2C1 (stereo not given)
2. O=C(CCl)NC1CCC(C(F)(F)F)CC1 (stereo not given)
3. O=C(CCl)NCCC1COCCO1 (stereo not given)
4. Cl.Cn1ncc2c1CCCC2NC(=O)CCl (stereo not given)
5. Cc1cccc2nc(CCNC(=O)CCl)cn12.Cl
6. Cl.O=C(CCl)N1CCc2ncncc2C1
7. Cc1ccc(C)c(Oc2ccc(CNC(=O)CCl)cn2)c1.Cl

[-0.195, -0.141, -0.143, -0.078, -0.121, -0.322, -0.166]

Consider the following items and state reported log2 ratio of Biotin-Ahx-Ub-VS probe labelling for each.
1. O=C(CCl)N[C@H]1CC[C@@H](CO)CC1
2. Cc1cccn2cc(CCNC(=O)CCl)nc12.Cl

1. -0.226
2. -0.0824
